- procedureDetails: NCI Yeast Anticancer Drug Screen. Data for the cln2 rad14 strain (AID 165);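 further: 0% = growth equal to vehicle treated cultures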
- measurementParameters: S. cerevisiae cln2 rad14 strain, at 50.0 µM, stronger effect = higher value
This is part of a sample that, as a whole, favours compounds with a hit. Of some 79,000 tested, about 15% had one in any assay.
Bucketed by reported growth inhibition, buckets being band 1 (below -10%), band 2 (-10% to below 20%), band 3 (20% or more)

Lookup: Exercise: read the entry `CCCCOc1c(Cl)cc(Cl)cc1-c1ccccc1` and state which class it falls under.
Found: band 1

Lookup: Exercise: read the entry `Cc1ccc(C2=C(c3ccc(C)cc3)CS(=O)(=O)C2)cc1` and state which class it falls under.
Found: band 2

Lookup: Exercise: read the entry CN1CCN(C2CCCc3ccccc3C2=O)CC1 (configuration not stated) and state which class it falls under.
Found: band 1

Lookup: Exercise: read the entry O=C1CCC(C(=O)Nc2ccc(Cl)c(Cl)c2)N1 (configuration not stated) and state which class it falls under.
Found: band 1

Lookup: Exercise: read the entry `CC(=O)N(C(=O)CC(=O)NN)c1ccc(Cl)cc1` and state which class it falls under.
Found: band 3

Lookup: Exercise: read the entry CCOC(=O)c1cn(C)c2c1C(=O)C(C(=O)OCC)CCN2C(=O)OCC (configuration not stated) and state which class it falls under.
Found: band 2

Lookup: Exercise: read the entry CC1CN1C(=O)Nc1cccc2c(NC(=O)N3CC3C)cccc12 (configuration not stated) and state which class it falls under.
Found: band 1

Lookup: Exercise: read the entry `COC(=O)c1ccccc1NC(=O)c1cccc(Cl)c1` and state which class it falls under.
Found: band 2

Lookup: Exercise: read the entry `O=C(Nc1cccc2ccccc12)c1ccc(Cl)c(Cl)c1` and state which class it falls under.
Found: band 3

Lookup: Exercise: read the entry CCn1c(=O)c2[nH]c(Cl)nc2n(CC(C)Cl)c1=O (configuration not stated) and state which class it falls under.
Found: band 2

Lookup: Exercise: read the entry `Cc1cc(=O)oc2c(-c3ccccc3)nnc(Cl)c12` and state which class it falls under.
Found: band 2

Lookup: Exercise: read the entry `Cc1ccc2c3c1CCCN3CCC2` and state which class it falls under.
Found: band 3

Lookup: Exercise: read the entry `C[C@]12CC[C@@H]3c4ccc(O)cc4CC[C@H]3[C@@H]1CC[C@@H]2OC(=O)CCc1ccccc1` and state which class it falls under.
Found: band 3

Lookup: Exercise: read the entry `CCCCN(CCCC)S(=O)(=O)c1ccc(OCCOc2ccc(S(=O)(=O)N(CCCC)CCCC)cc2)cc1` and state which class it falls under.
Found: band 1

Lookup: Exercise: read the entry NC(CCOCCP(=O)(O)CCOCCC(N)C(=O)O)C(=O)O (configuration not stated) and state which class it falls under.
Found: band 2

Lookup: Exercise: read the entry O=C(Nc1cccc(Cl)c1)C(=O)C(C(=O)c1ccc2ccccc2c1)C1OC(=O)c2ccccc21 (configuration not stated) and state which class it falls under.
Found: band 3

Lookup: Exercise: read the entry CC1CN(C(c2ccccc2)c2ccccc2)CCN1CCO (configuration not stated) and state which class it falls under.
Found: band 1

Lookup: Exercise: read the entry `CCNC(=O)NCc1cccc2ccccc12` and state which class it falls under.
Found: band 1

Lookup: Exercise: read the entry `Nn1c(=O)[nH]c2ncn(Cc3ccccc3)c2c1=O` and state which class it falls under.
Found: band 2

Lookup: Exercise: read the entry CCCCC(CC)CCC(O)C(O)C(C)C (configuration not stated) (tested in a mixture with another compound) and state which class it falls under.
Found: band 1

Lookup: Exercise: read the entry CCCN1C(=O)CC(NC(C)=O)C1=O (configuration not stated) and state which class it falls under.
Found: band 1

Lookup: Exercise: read the entry `CN(C)C(=S)N(C(=S)N(C)C)c1ccc(Cl)cc1` and state which class it falls under.
Found: band 2

====

- procedureDetails: NCI Yeast Anticancer Drug Screen. Data for the mlh1 rad18 strain (AID 175)
- measurementParameters: S. cerevisiae mlh1 rad18 strain growth inhibition; at 50.0 µM; stronger effect = higher value
About 79,000 compounds went through this panel and 15% of them were active in at least one assay; those are over-represented in the sample as a whole.
quantityKind: growth inhibition (%)
Output spec: scalar in %, unitless text.

Lookup: Endpoint output: growth inhibition of `CCOc1c(Cc2ccccc2)c(=O)n2c3ccccc3n3c(=O)n(C)c(=O)c1c23` . Value?
Found: -25

Lookup: Endpoint output: growth inhibition of `CSCc1cc(C)ccc1NC(C)=O` . Value?
Found: 10.8

Lookup: Endpoint output: growth inhibition of CCC(C)OC(=O)C1C(=O)CC(c2ccccc2)C1c1ccccc1 (stereo unspecified) . Value?
Found: -6.35

Lookup: Endpoint output: growth inhibition of `Cc1cc(C)c2c(c1)C(=O)c1ccccc1C2=O` . Value?
Found: 58.8

Lookup: Endpoint output: growth inhibition of `Cc1ccc(C2=C(c3ccc(C)cc3)CS(=O)(=O)C2)cc1` . Value?
Found: -26.1

Lookup: Endpoint output: growth inhibition of `CCCCn1c(-c2ccccc2)cs/c1=N\N=C1C=C(C(C)(C)C)C(=O)C(C(C)(C)C)=C1` . Value?
Found: 16.9

Lookup: Endpoint output: growth inhibition of `C/C(CC(=O)Nc1ccccc1[N+](=O)[O-])=N\NC(N)=O` . Value?
Found: -2.9

Lookup: Endpoint output: growth inhibition of `CC(=O)Nc1ccc(/C=N\N=C\c2ccc(NC(C)=O)cc2)cc1` . Value?
Found: 28.6

Lookup: Endpoint output: growth inhibition of CC(NC(=O)c1cnc2ccccc2n1)C(=O)O (stereo unspecified) . Value?
Found: -24.8

Lookup: Endpoint output: growth inhibition of `Cc1ccc(/C=N/NC(=O)c2ccccc2NC(=O)c2ccccc2)cc1` . Value?
Found: 69.8

Lookup: Endpoint output: growth inhibition of `COC(=O)c1ccc(N=NN(C)COC(C)=O)cc1` . Value?
Found: 18.8

Lookup: Endpoint output: growth inhibition of `CC1(C)CCNc2ccccc2S1` . Value?
Found: -14.6

Lookup: Endpoint output: growth inhibition of `C=C1CN(C(=O)NCCCl)C1` . Value?
Found: -7.8

Lookup: Endpoint output: growth inhibition of CSCCC(NCc1c(O)ccc2c(C)cc(=O)oc12)C(=O)O (stereo unspecified) . Value?
Found: 26.7

Lookup: Endpoint output: growth inhibition of `NC(=O)NC12CC3CC(CC(C3)C1)C2` . Value?
Found: 2.75

Lookup: Endpoint output: growth inhibition of `NC(=S)N/N=C(\c1ccccc1)c1cccc2ccccc12` . Value?
Found: 33.5

Lookup: Endpoint output: growth inhibition of CCN1OCC(C)(C(=O)OC)C1C (stereo unspecified) . Value?
Found: -21.1

Lookup: Endpoint output: growth inhibition of CCOC1(OCC)CS(=O)(=O)C1c1ccccc1 (stereo unspecified) . Value?
Found: -18.6

Lookup: Endpoint output: growth inhibition of CC1CC(=O)Nc2ccccc2N1C(=O)C1CC1 (stereo unspecified) . Value?
Found: -1.85

Lookup: Endpoint output: growth inhibition of `C/C(CC(=O)N(C(C)C)C(C)C)=N\NC(=O)c1ccncc1` . Value?
Found: 13.8

Lookup: Endpoint output: growth inhibition of `CCN(CC)c1ccc(/C=C2\CCc3ccc([N+](=O)[O-])cc3C2=O)cc1` . Value?
Found: -7.95

Lookup: Endpoint output: growth inhibition of `N#C/C(=C\c1cccc(Br)c1)c1nc2ccccc2c(=O)[nH]1` . Value?
Found: -35.4

Lookup: Endpoint output: growth inhibition of O=C(NC1CC/C=C(/c2ccccc2)CC(Cl)C1)c1ccccc1 (stereo unspecified) . Value?
Found: -0.25

Lookup: Endpoint output: growth inhibition of `O=C(CC(CC(=O)Oc1c(Br)cc(Br)cc1C(=O)O)C(=O)Oc1c(Br)cc(Br)cc1C(=O)O)Oc1c(Br)cc(Br)cc1C(=O)O` . Value?
Found: -5.6

Lookup: Endpoint output: growth inhibition of `CCCCCCC(=O)C/C(CCC(=O)N(Cc1ccccc1)Cc1ccccc1)=N\NC(N)=O` . Value?
Found: -20.8

Lookup: Endpoint output: growth inhibition of `Cc1ccc(S(=O)(=O)N(c2cc(C)ccc2C)c2ccccc2N)cc1` . Value?
Found: 25.2

Lookup: Endpoint output: growth inhibition of `CCOC(=O)c1ccc(NC(=S)NC(=O)c2cccs2)o1` . Value?
Found: 63.4

Lookup: Endpoint output: growth inhibition of `CC(=O)N/C(=C\c1ccccc1)C(N)=O` . Value?
Found: 1.55

Lookup: Endpoint output: growth inhibition of CC(=O)OCC1OC2OC(C)(C)OC2C1NC(=O)C(F)(F)F (stereo unspecified) . Value?
Found: 9.25

Lookup: Endpoint output: growth inhibition of `CCCCNC(=O)c1ccc([N+](=O)[O-])cc1` . Value?
Found: -9.05

Lookup: Endpoint output: growth inhibition of `CCOC(=O)C(C(=O)OCC)(C(=O)C(F)(F)C(F)(F)C(F)(F)C(F)(F)C(=O)C(C(=O)OCC)(C(=O)OCC)c1ccccc1)c1ccccc1` . Value?
Found: 11.1

Lookup: Endpoint output: growth inhibition of `COc1c(C)c2nc3ccccc3[nH]c2c2c(=O)ccnc12` . Value?
Found: 46.1

Lookup: Endpoint output: growth inhibition of `NC(=O)c1cccc2c1OCO2` . Value?
Found: -5.25

Lookup: Endpoint output: growth inhibition of `O=CNc1ccccc1-c1ccccc1` . Value?
Found: 2.55

Lookup: Endpoint output: growth inhibition of OCC(O)C(O)C(O)C(O)C(O)[C@@H](O)c1nc2ccccc2[nH]1 (stereo partly specified) . Value?
Found: 6.6

Lookup: Endpoint output: growth inhibition of CC(=O)OCC1OC(OC(C)=O)C(Nc2ncnc3nc[nH]c23)C(OC(C)=O)C1OC(C)=O (stereo unspecified) . Value?
Found: 37.8

Lookup: Endpoint output: growth inhibition of `O=C1c2ccccc2C(=O)c2cc(Br)ccc21` . Value?
Found: 0.2

Lookup: Endpoint output: growth inhibition of `O=C1Cc2nc3ccccc3nc2CC(=O)c2ccccc21` . Value?
Found: 13.3

Lookup: Endpoint output: growth inhibition of `Cc1cc2c(C)nn(Cc3ccc(Cl)cc3Cl)c2c(C#N)c1C` . Value?
Found: 31.6

Lookup: Endpoint output: growth inhibition of CCOC(=O)c1c(C)c2c(n1C)CCC(CCC(C)=O)C2=O (stereo unspecified) . Value?
Found: 3.15

Lookup: Endpoint output: growth inhibition of `CN(C)c1ccc(N=Nc2ccc(C(C)(C)C)cc2)cc1` . Value?
Found: -20.3
